List of relative IC50 values.
- System: HS-Sch-2
- experimental-protocol: relative IC50 (inflection point of fitted dose-response curve, CellTiter-Glo viability, 72 h; top asymptote may be below 50% inhibition); higher = less potent

| compound | relative IC50 |
| --- | --- |
| O=C(Nc1nc2cccc(-c3ccc(CN4CCS(=O)(=O)CC4)cc3)n2n1)C1CC1 | 2.68 µM |
| CCCCCCCCc1ccc(CCC(N)(CO)CO)cc1 | 2.48 µM |
| CN1CCC(COc2cnc(-c3cccc(Cn4nc(-c5cccc(C#N)c5)ccc4=O)c3)nc2)CC1 | > 1 µM |
| COc1ncc(-c2ccc3nccc(-c4ccnnc4)c3c2)cc1NS(=O)(=O)c1ccc(F)cc1F | 0.0984 µM |
| Cc1cc(C)c(CNC(=O)c2cc(-c3ccc(CN4CCOCC4)cc3)cc3c2cnn3C2CCCC2)c(=O)[nH]1 | > 10 µM |
| O=C(CCCCCCC(=O)Nc1ccccc1)NO | 1.77 µM |
| COc1ccc(-c2nc(N3CCOCC3)c3sc(CN(C)c4ncc(C(=O)NO)cn4)cc3n2)cn1 | 0.0243 µM |
| OC[C@H]1O[C@@H](n2cnc3c2N=CNC[C@H]3O)C[C@@H]1O | > 10 µM |
| NC1(C(=O)N[C@@H](CCO)c2ccc(Cl)cc2)CCN(c2ncnc3[nH]ccc23)CC1 | 3.47 µM |
| NC(=O)c1ccc(I)c([N+](=O)[O-])c1 | > 10 µM |
| CCc1nc(-c2cccc(C)c2)c(-c2ccnc(NC(=O)c3ccccc3)c2)s1 | 1.21 µM |
| CC(C)CC(=O)Nc1n[nH]c2c1CN(C(=O)C1CCN(C)CC1)C2(C)C | 1.29 µM |
| Cc1nc(C(=O)NCC(=O)O)c(O)c2ccc(Oc3ccccc3)cc12 | 2.47 µM |
| Cc1ccc(NC(=O)c2ccc(CN3CCN(C)CC3)cc2)cc1Nc1nccc(-c2cccnc2)n1 | 3.19 µM |
| O=C(O)c1ccc(-c2c[nH]c3ncc(-c4ccccc4)cc23)cc1C1CCCC1 | 2.98 µM |
| CCC1(c2ccc(N)cc2)CCC(=O)NC1=O (stereo not given) [Aminoglutethimide] | > 10 µM |
| CCCCc1nc2cc(/C=C/C(=O)NO)ccc2n1CCN(CC)CC | 0.429 µM |
| CN1CCN(c2cc(C(=O)Nc3ccc4c(c3)-c3c(c(C(N)=O)nn3-c3ccc(F)cc3)CC4)c(Cl)cn2)CC1 | 3.28 µM |
| CCCOc1ccn2c(C(C)=O)cc(-c3ccccc3S(C)(=O)=O)c2c1 | > 10 µM |
| C1=N/C2=N/c3ccc(OCCN4CCCC4)c(c3)COC/C=C/COCc3cccc(c3)C(=C1)N2 | 1.76 µM |
| CC[C@@]1(O)C(=O)OCc2c1cc1n(c2=O)Cc2cc3ccccc3nc2-1 | 0.0634 µM |
| N#Cc1ccc(COC[C@H]2O[C@@H](n3c(NCc4ccc(Cl)c(Cl)c4)nc4c(N)ncnc43)[C@H](O)[C@@H]2O)cc1 | > 10 µM |
| O=C(O)CSc1cc(NS(=O)(=O)c2ccc(Br)cc2)c2ccccc2c1O | 5.66 µM |
| Cc1ncc(-c2ccnc(Nc3ccc(S(C)(=O)=O)cc3)n2)n1C(C)C | 1.9 µM |
| O=C(c1ccc(/C=C/c2n[nH]c3ccccc23)cc1)N1CCNCC1 | > 2.5 µM |
| CCn1cc(-c2ccnc3[nH]c(-c4cccc(CN(C)C)c4)cc23)c(-c2ccc(NC(=O)N(C)C)cc2)n1 | 0.157 µM |
| O=C(c1cccc(Cl)c1F)N1CCN(Cc2cccc(Nc3nccs3)n2)CC1 | 0.623 µM |
| CC[C@@H]1C(=O)N(C)c2cnc(Nc3ccc(C(=O)NC4CCN(C)CC4)cc3OC)nc2N1C1CCCC1 | 0.00328 µM |
| CCc1cc2c(cc1N1CCC(N3CCOCC3)CC1)C(C)(C)c1[nH]c3cc(C#N)ccc3c1C2=O | > 1 µM |
| CNC(=O)c1cccc(-c2ccc3c(N4CCOC[C@@H]4C)nc(N4CCOC[C@@H]4C)nc3n2)c1 | 0.366 µM |
| O=C(NC1CCNCC1)c1n[nH]cc1NC(=O)c1c(Cl)cccc1Cl | 0.337 µM |
| O=c1cc(N2CCOCC2)oc2c(-c3ccccc3)cccc12 | 13.7 µM |
| Cn1c(=O)n(-c2ccc(C(C)(C)C#N)cc2)c2c3cc(-c4cnc5ccccc5c4)ccc3ncc21 | 0.0121 µM |
| c1ccc([C@H]2CN3CCSC3=N2)cc1 | > 10 µM |
| Cn1cc(-c2ccc3nnc(Sc4ccc5ncccc5c4)n3n2)cn1 | > 5 µM |

----------
- Tested on: STS26T
- experimental-protocol: drug sensitivity score (DSS, CellTiter-Glo viability, 72 h) (DSS (dimensionless)); higher = more sensitive; extreme values may be limits of the assay
measured-endpoint: drug sensitivity score

| molecule | system-name | numeric-result |
| --- | --- | --- |
| CCN(CC)CCOc1ccc(/C(=C(/Cl)c2ccccc2)c2ccccc2)cc1 [Clomifene] (max concentration tested 10000 nM) | STS26T | 6.27 |
| Cn1cnc2c(F)c(Nc3ccc(Br)cc3F)c(C(=O)NOCCO)cc21 [MEK-162] (max concentration tested 1000 nM) | STS26T | 2.04 |
| CC[C@H](CC#N)OC(=O)N[C@@H](C)c1cccc(NC(=O)Nc2ccc(-c3cnco3)c(OC)c2)c1 [AVN944] (max concentration tested 10000 nM) | STS26T | 12.2 |

----------
- Test system: HSC1
- experimental-protocol: relative IC50 (inflection point of fitted dose-response curve, CellTox-Green cytotoxicity, 72 h; top asymptote may be below 50%); higher = less potent

| molecule | relative IC50 |
| --- | --- |
| CN1CCN(CCOc2cc(OC3CCOCC3)c3c(Nc4c(Cl)ccc5c4OCO5)ncnc3c2)CC1 | > 10 µM |
| C=CCN(/C=C1/C(=O)O[C@H](COC)[C@@]2(C)C1=C(O)C(=O)C1=C2[C@H](OC(C)=O)C[C@]2(C)C(=O)CC[C@@H]12)CC=C | > 10 µM |
| Nc1nc(OCc2cc(Br)cs2)c2[nH]cnc2n1 | > 10 µM |
| CCc1c(C(=O)C(N)=O)c2c(OCC(=O)O)cccc2n1Cc1ccccc1 | > 10 µM |
| C[C@@H]1C[C@H]2[C@@H]3CCC4=CC(=O)C=C[C@]4(C)[C@@]3(F)[C@@H](O)C[C@]2(C)[C@@]1(O)C(=O)CO | > 10 µM |
| CN(C)C[C@@H]1CCn2cc(c3ccccc32)C2=C(C(=O)NC2=O)c2cn(c3ccccc23)CCO1 | 2.06 µM |
| CN(C)C(=N)NC(=N)N | > 100 µM |
| CC(O)(CS(=O)(=O)c1ccc(F)cc1)C(=O)Nc1ccc(C#N)c(C(F)(F)F)c1 (configuration not stated) [Bicalutamide] | > 10 µM |
| C[C@@H](C(=O)O)c1ccc(-c2ccccc2)c(F)c1 | > 10 µM |
| O=NN(CCCl)C(=O)NC1CCCCC1 | > 10 µM |
| COC1=CC(c2cc3ccccc3[nH]2)=N/C1=C\c1[nH]c(C)cc1C | 2.22 µM |
| COc1cc2c(N3CCN(C(=O)Nc4ccc(OC(C)C)cc4)CC3)ncnc2cc1OCCCN1CCCCC1 | > 1 µM |

----------
- Tested on: HS-PSS
- experimental-protocol: drug sensitivity score (DSS, CellTox-Green cytotoxicity, 72 h) (DSS (dimensionless)); higher = more cytotoxic; extreme values may be limits of the assay
The threshold is inclusive: drug sensitivity score of exactly 0.9 counts as satisfied; values below receive not satisfied.

| compound | category |
| --- | --- |
| COC(=O)C[C@](O)(CCCC(C)(C)O)C(=O)O[C@@H]1C(OC)=C[C@]23CCCN2CCc2cc4c(cc2[C@H]13)OCO4 [Omacetaxine] (max concentration tested 10000 nM) | satisfied |
| CCCCCCCCc1ccc(CCC(N)(CO)CO)cc1 [Fingolimod] (max concentration tested 10000 nM) | satisfied |
| COc1cc(C(=O)NC2CCN(C)CC2)c(F)cc1Nc1ncc2c(n1)N(C1CCCC1)CC(F)(F)C(=O)N2C [TAK-960] (max concentration tested 2500 nM) | not satisfied |
| S=C(NCc1ccc2c(c1)OCO2)N1CCN(c2ncnc3c2oc2ccccc23)CC1 [Amuvatinib] (max concentration tested 10000 nM) | not satisfied |
| CN1CCC(CNc2ccc3ncc(-c4cccc(OC(F)(F)F)c4)n3n2)CC1 [SGI-1776] (max concentration tested 10000 nM) | satisfied |
| CCCOc1ccn2c(C(C)=O)cc(-c3ccccc3S(C)(=O)=O)c2c1 [GSK2801] (max concentration tested 10000 nM) | not satisfied |
| Cc1cnc(-c2ccccc2C(C)C)nc1NCc1ccc(-n2ccnn2)cc1 [ML323] (max concentration tested 10000 nM) | not satisfied |
| CN(c1ncccc1CNc1nc(Nc2ccc3c(c2)CC(=O)N3)ncc1C(F)(F)F)S(C)(=O)=O (max concentration tested 10000 nM) | not satisfied |
| Cc1cc2c(C(C)C)c(O)c(O)c(C=O)c2c(O)c1-c1c(C)cc2c(C(C)C)c(O)c(O)c(C=O)c2c1O [AT 101] (max concentration tested 100000 nM) | satisfied |
| Cc1nc(=O)c2cc(CN(C)c3ccc(C(=O)N[C@@H](CCC(=O)O)C(=O)O)s3)ccc2[nH]1 [Raltitrexed] (max concentration tested 1000 nM) | not satisfied |
| Cc1cc(-c2nc(-c3ccc(OC(F)(F)F)cc3)no2)nn1Cc1ccnc(N2CCN(C3CC3)CC2)c1 [BAY 87-2243] (max concentration tested 1000 nM) | not satisfied |

From: the supplement of paper PMC5579334
